Test: ATG_DR4_LXR_CIS: Attagene CIS-FACTORIAL HepG2 Assay for human Liver X Receptor (LXR), DR4 submotif (AID 2282929)
Conditions: HepG2 Attagene DR4 cis-reporter, mRNA transcription; actives raise or lower the signal
Procedure: ATG_CIS is a cell-based, multiplexed-readout assay that uses HepG2, a human liver cell line, with measurements taken at 24 hours after chemical dosing in a 24-well plate.ATG_DR4_LXR_CIS is one of 52 assay component(s) measured or calculated from the ATG_CIS assay. […] This assay endpoint, ATG_DR4_LXR_CIS, was analyzed with bidirectional fitting relative to DMSO as the negative control and baseline of activity. […]
Activity calls are given as the source filed them. Rule for the calls: active = hit-call score of the fitted dose curve at least 0.9, where 1 is the maximum; inactive = score below 0.9.
Mark one answer only. Choices: label 1 for active, label 0 for inactive

Answered cases to consult:
> print(dat)
                                   compound  qualitative.label
1               C=CCOC(F)(C(F)(F)F)C(F)(F)F            label 0
2  O=C(NC(=O)c1c(F)cccc1F)Nc1cc(Cl)c(Oc2ncc(C(F)(F)F)cc2Cl)c(Cl)c1            label 1
3  CC(C)=CC1C(C(=O)OCc2cccc(Oc3ccccc3)c2)C1(C)C (stereo unspecified)            label 1
4                              ClCCN1CCOCC1            label 0
5                                  BrCCCCBr            label 0

Request: Hi, sorry to bother you, what did the test record for `[Cl][Sn]([c]1ccccc1)([c]1ccccc1)[c]1ccccc1` ?
Result: label 1

Request: Per the assay record, what outcome was assigned to `C=CCc1ccccc1O` ?
Result: label 0

Request: In this assay, the call recorded for `N#Cc1ccccc1Cl` was what?
Result: label 0

Request: Recorded call for `C=CCOC(N)=O` ?
Result: label 0

Request: Recorded call for `Brc1ccc(Oc2c(Br)cc(Br)cc2Br)c(Br)c1` ?
Result: label 0

Request: For `CN(N=O)c1ccc([N+](=O)[O-])cc1` , which call appears in the assay record?
Result: label 0

###

Molecular target: Cellular tumor antigen p53 (Homo sapiens)
Assay: ATG_p53_CIS: Attagene CIS-FACTORIAL HepG2 Assay for human p53 Transcription Factor (AID 2282994)
Conditions: HepG2 p53 cis-element reporter, Attagene mRNA; actives raise or lower the signal
Calls of active or inactive are those of the source. The calls were made as follows: active = hit-call score of the fitted dose curve at least 0.9, where 1 is the maximum; inactive = score below 0.9.
Use one of these outcomes when replying: yes (active), no (inactive)

> print(dat)
                                   molecule  qualitative.label
1  Cc1cccc(OP(=O)(Oc2cccc(C)c2)Oc2cccc(C)c2)c1                 no

Request: What is the recorded call for this molecule in the test? `Cc1c([N+](=O)[O-])c(C)c([N+](=O)[O-])c(C(C)(C)C)c1[N+](=O)[O-]`
Result: no

Request: Please let me know the test result on file for `CCN(CCO)CCO` .
Result: no

Request: Hi, do you know how `C[As+](C)(C)CC(=O)[O-]` came out in this test?
Result: no

Request: I would be grateful if you could indicate the recorded call for `CCN(N=O)C(N)=O` .
Result: no

Request: Test call for this molecule, please: `C=CCCl`
Result: no

Request: Hello, I am checking results. What call was entered for `COC(=O)Nc1cccc(OC(=O)Nc2cccc(C)c2)c1` ?
Result: no

// data source = PubChem BioAssay (EPA / NIEHS)
